Reference source for all entries: paper PMC2866539

- ASSAY TARGET: DRA1*0101/DRB1*0101 (Homo sapiens, UniProt P01903+P01911, A100R/D57E/F55L/F60I/F76Y/I96L/L162R/M171V/P40L/Q125E/R42F/V115G/Y59C)
- Construct: made in house
- TEST SUMMARY: biochemical
- Assay type: binding
Where no end group is shown, it is not given here.
MEASUREMENT KIND: Kd (nM)
Hi! Could you send only the number? It should be in nM, unit omitted.

Value lookup for Kd; key = YILLKKILSSRFNQM [hypothetical protein 239–253, reference compound] 435

###

- ASSAY TARGET: DRA1*0101/DRB1*0301 (Homo sapiens, UniProt P01903+P01911, A100K/A102G/A103R/A169T/F55Y/I96L/K41T/L162R/M171V/P40S/Q125H/Q178H/Q39Y/R42S/S66N/T106N/T262R/W38E/Y61H)
- Sequence (P01903 26-254 limits assumed, other chains not shown): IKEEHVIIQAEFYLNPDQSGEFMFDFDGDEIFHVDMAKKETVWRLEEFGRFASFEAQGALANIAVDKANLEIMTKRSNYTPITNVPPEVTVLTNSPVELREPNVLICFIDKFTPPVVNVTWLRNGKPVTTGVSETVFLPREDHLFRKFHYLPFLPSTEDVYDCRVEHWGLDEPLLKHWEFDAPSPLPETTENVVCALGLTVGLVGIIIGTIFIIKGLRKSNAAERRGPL
- TEST SUMMARY: biochemical
- Type: binding
Where no end group is shown, it is not given here.
MEASUREMENT KIND: pKd
# pKd: negative log10 of molar concentration; output just the value

pKd lookup needed for YILLKKILSSRFNQM [hypothetical protein 239–253, reference compound] , thanks. 7.70
